B1: GLTSCR2 (parent)
chain: FQRRNMIEPRERAKFKRKYKVKLV

Variants of: B1
MEASUREMENT NOTES: protein stability index of a GFP-peptide fusion (GPS, HEK-293T) (PSI 1-6); higher = more stable;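 further: lentivirally expressed fusions sorted by FACS into six bins by GFP to DsRed ratio, PSI derived from sequencing read proportions per bin multiplied by bin number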
ASSAY CONTEXT: c terminus: a fixed tail appended
Please note: yes (1) applies when protein stability index is 2 or greater, and no (0) applies otherwise.

FIRRNMIEPRERAKFKRKYKVKLV [Q2I] : yes (1)

Given FQRRNMIEPRERADFKRKYKVKLV [K14D] , state whether its protein stability index is at least 2.
yes (1)

Given FQRRNMIEPRERAKFKRKYKVHLV [K22H] , state whether its protein stability index is at least 2.
no (0)

Given FQRRNMIEPRERAKFKRKYKVKRV [L23R] , state whether its protein stability index is at least 2.
yes (1)

Given FQRRNMPEPRERAKFKRKYKVKLV [I7P] , state whether its protein stability index is at least 2.
yes (1)
